# assayOverview: Total drug level in Wistar Hannover rat plasma at 1 mg/kg, po after 2 hrs by UPLC-MS analysis
# Format: ADME, organism-based
outcomeMeasure: concentration at 2 h

q: Quick one: give measured concentration at 2 h for COCCOc1nc(-c2ccc(Cl)nc2)nc2c1CN(C(=O)c1ncn3ccccc13)CC2
a: 0.27 µM

###

# assayOverview: Clearance in orally dosed rat after 2 hrs by UPLC-MS analysis
# Assay type: ADME, organism-based
# testSettings: in vivo, route po
outcomeMeasure: CL/F (mL/min/kg)
Please give a number only; it is taken to be in mL/min/kg.

q: Quick one: give measured CL/F for COCCOc1nc(-c2ccc(Cl)nc2)nc2c1CN(C(=O)c1ncn3ccccc13)CC2 [THPP-1]
a: 6

###

# assayOverview: Half life in orally dosed rhesus monkey after 4 hrs by UPLC-MS analysis
# Type: ADME, organism-based, Macaca mulatta
# testSettings: in vivo, route po
outcomeMeasure: half-life
Just so you know, I need the unit written after the number.

q: Quick one: give measured half-life for COCCOc1nc(-c2ccc(Cl)nc2)nc2c1CN(C(=O)c1ncn3ccccc13)CC2
a: 1.4 h

###

# assayOverview: Total drug level in plasma of […] engaged in object retrieval detour task at 10 mg/kg, po dosed for 4 days prior to testing and on day 5 drug was administered orally 2 h prior to testing and measured after 4 hrs by UPLC-MS analysis
# Format: ADME, organism-based
# testSettings: time 5 day
outcomeMeasure: concentration at 120 h (nM)
Please give a number only; it is taken to be in nM.

q: Quick one: give measured concentration at 120 h for COCCOc1nc(-c2ccc(Cl)nc2)nc2c1CN(C(=O)c1ncn3ccccc13)CC2 [THPP-1]
a: 1600

###

# assayOverview: Drug level in Wistar Hannover rat CSF at 0.3 mg/kg, po after 2 hrs by UPLC-MS analysis
# Format: ADME, organism-based, Cerebrospinal fluid
# testSettings: read-out: Drug uptake
outcomeMeasure: concentration at 2 h
Just so you know, I need the unit written after the number.

q: Quick one: give measured concentration at 2 h for COCCOc1nc(-c2ccc(Cl)nc2)nc2c1CN(C(=O)c1ncn3ccccc13)CC2 [THPP-1]
a: 3 nM

###

# assayOverview: Clearance in orally dosed dog after 2 hrs by UPLC-MS analysis
# Type: ADME, organism-based, Canis lupus familiaris
# testSettings: in vivo, route po
outcomeMeasure: CL/F (mL/min/kg)
Please give a number only; it is taken to be in mL/min/kg.

q: Quick one: give measured CL/F for COCCOc1nc(-c2ccc(Cl)nc2)nc2c1CN(C(=O)c1ncn3ccccc13)CC2
a: 3.8

###

outcomeMeasure: pKi
Please keep in mind that pKi is minus log10 of the molar concentration; only the number is needed.

q: Find the measured pKi of COCCOc1nc(-c2ccc(Cl)nc2)nc2c1CN(C(=O)c1ncn3ccccc13)CC2 with cAMP and cAMP-inhibited cGMP 3',5'-cyclic phosphodiesterase 10A (Rattus norvegicus) as test system.
Sequence (Q9QYJ6 whole entry): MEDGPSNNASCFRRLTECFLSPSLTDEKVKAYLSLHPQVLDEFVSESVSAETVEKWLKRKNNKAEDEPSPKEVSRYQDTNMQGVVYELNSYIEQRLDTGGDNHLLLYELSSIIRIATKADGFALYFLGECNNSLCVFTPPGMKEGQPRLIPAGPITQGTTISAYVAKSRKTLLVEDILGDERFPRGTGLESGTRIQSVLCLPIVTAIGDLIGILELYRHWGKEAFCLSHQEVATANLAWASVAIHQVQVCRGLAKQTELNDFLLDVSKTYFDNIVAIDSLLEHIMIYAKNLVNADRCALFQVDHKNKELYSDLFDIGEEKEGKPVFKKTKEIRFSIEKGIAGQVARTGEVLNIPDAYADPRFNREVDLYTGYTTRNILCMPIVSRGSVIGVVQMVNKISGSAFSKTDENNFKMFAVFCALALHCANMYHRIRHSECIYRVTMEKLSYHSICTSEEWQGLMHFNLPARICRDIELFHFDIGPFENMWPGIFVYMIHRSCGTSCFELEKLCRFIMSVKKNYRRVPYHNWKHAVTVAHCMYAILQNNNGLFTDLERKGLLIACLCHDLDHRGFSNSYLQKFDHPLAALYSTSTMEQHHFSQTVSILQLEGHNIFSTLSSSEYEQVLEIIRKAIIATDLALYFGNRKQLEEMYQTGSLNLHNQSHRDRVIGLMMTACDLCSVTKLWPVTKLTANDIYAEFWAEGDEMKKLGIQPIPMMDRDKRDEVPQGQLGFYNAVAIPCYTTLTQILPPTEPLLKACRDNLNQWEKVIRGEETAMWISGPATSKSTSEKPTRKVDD
a: 8.89

###

# assayOverview: Total drug level in Wistar Hannover rat plasma at 30 mg/kg, po after 2 hrs by UPLC-MS analysis
# Type: ADME, organism-based
outcomeMeasure: concentration at 2 h (nM)
Please give a number only; it is taken to be in nM.

q: Quick one: give measured concentration at 2 h for COCCOc1nc(-c2ccc(Cl)nc2)nc2c1CN(C(=O)c1ncn3ccccc13)CC2 [THPP-1]
a: 1800

###

# assayOverview: Total drug level in Wistar Hannover rat plasma at 10 mg/kg, po after 2 hrs by UPLC-MS analysis
# Format: ADME, organism-based
outcomeMeasure: concentration at 2 h (nM)
Please give a number only; it is taken to be in nM.

q: Quick one: give measured concentration at 2 h for COCCOc1nc(-c2ccc(Cl)nc2)nc2c1CN(C(=O)c1ncn3ccccc13)CC2
a: 1320
